target: T1, UKNP6.1.2 E2E1-I53-50A trimer (Hepatitis C virus genotype 6, strain …, UniProt A0A0U3SJ35, stabilised); experiment: ELISA; conditions: both partners purified
T1 construct: also called UKNP6.1.2 E2E1 trimer; source: HEK293F, co-transfected with furin, purified (Strep-TactinXT, SEC); copies: 3 + 3

binder	binding result
HEPC74 S54L (antibody, V domains shown, human IgG1; source: HEK293F, transfected, purified (protein A/G)) VH: QVQLVQSGAEVKKPGSSVKVSCTTSGGTYINYAISWVRQAPGQGLEWVGGMSPILNTPKYAQKFQGRVTITADESTSTTYMELSSLRPEDTAVYYCARDLLKYCGGGNCHSLLVDPWGQGTLVTVSS VL: DIVMTQSPSTLSASVGDRVTISCRASQSISSWLAWYQQKPGRAPKLLIYKASSLETGVPSRFSGSGSGTEFTLTISSLQPDDFATYYCQHYNTYLFTFGPGTKVDLK	binds
AR3C (antibody, V domains shown, also called mature AR3C; conventional AR3C; source: HEK293F, transfected, purified (protein A/G)) VH: VQLLEQSGAEVKKPGSSVKVSCETSGGTFDNYALNWVRQAPGQGLEWIGGVVPLFGTTRNAQKFQGRVTISDDKSTGTGHMELRSLRSEDTAVYYCVRSVTPRYCGGGFCYGEFDYWGQGTLVTVSS VL: EIELTQSPATLSVSPGERATLSCRASQSVSSNLAWYQQKPGQAPRLLIYGASTRATGIPARFSGSGSGTEFTLTVSRLEPEDSAVYFCQQYYRSPLTFGGGTKVEIK	binds
HEPC3 (antibody, V domains shown, also called mature HEPC3; source: HEK293F, transfected, purified (protein A/G)) VH: QVQLVQSGAEVKKPGSSVKVSCKASGGTLNSYEITWVRQAPGQGLEWMGGITPIFETTYAQKFQGRVTITADESTSTTYMELSSLRPEDTAVYYCARDGVRYCGGGRCYNWFDPWGQGTLVTVSS VL: DIQMTQSPSSLSASVGDRVTITCRAGQNINNYLNWYQQKPGKAPKVLIYAASNLQSGVPSRFSGSGSGTDFTLTISSLQPEDFATYYCQQSHSTVRTFGQGTKVEIK	binds
